These entries and their values trace back to patent US11566007B2.

Target: K-Ras G12C (Homo sapiens (Human), UniProt P01116+P62937, G12C)
Sequence (P01116-2 other isoform, or with tags, fused parts or gaps G12C): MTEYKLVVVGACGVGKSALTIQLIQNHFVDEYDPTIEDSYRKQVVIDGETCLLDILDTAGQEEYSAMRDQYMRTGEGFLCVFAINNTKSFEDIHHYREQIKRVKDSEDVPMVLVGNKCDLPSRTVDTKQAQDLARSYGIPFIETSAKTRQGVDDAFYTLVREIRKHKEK
Sequence (P62937 whole entry): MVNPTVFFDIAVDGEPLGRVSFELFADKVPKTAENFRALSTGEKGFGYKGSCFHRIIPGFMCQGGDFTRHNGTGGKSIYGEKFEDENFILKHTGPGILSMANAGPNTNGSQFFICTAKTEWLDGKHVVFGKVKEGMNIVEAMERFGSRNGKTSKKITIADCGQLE
Assay: Ras-Raf (BRAF RBD) disruption / FRET / MOA assay, KRAS G12C
Format: biochemical
Details: KRAS G12C; Ras-Raf disruption/FRET/MOA assay; read-out: IC50* KRAS G12C FRET data
reported.property: IC50

INSERT INTO results (compound, reported_property, observed) VALUES
  ('C=CC(=O)N1CC[C@H](C(=O)N(C)[C@H](C(=O)N[C@H]2Cc3cc(O)cc(c3)-c3ccc4c(c3)c(c(-c3ccncc3CN(C)C)n4CC)CC(C)(C)COC(=O)[C@@H]3CCCN(N3)C2=O)C(C)C)C1', 'IC50', '10 to 100 nM'),
  ('CC#CC(=O)N1CCC(C(=O)N(C)[C@H](C(=O)N[C@H]2Cc3nc(cs3)-c3ccc4c(c3)c(c(-c3cccnc3[C@H](C)OC)n4CC)CC(C)(C)COC(=O)[C@@H]3CCCN(N3)C2=O)C(C)C)C1 (atropisomer, axis not shown)', 'IC50', '100 to 1000 nM'),
  ('C=CC(=O)N1CC[C@]2(C1)OCN([C@H](C(=O)N[C@H]1Cc3cccc(n3)-c3ccc4c(c3)c(c(-c3cccnc3[C@H](C)OC)n4CC)CC(C)(C)COC(=O)[C@@H]3CCCN(N3)C1=O)C(C)C)C2=O (atropisomer, axis not shown)', 'IC50', '100 to 1000 nM'),
  ('C=CC(=O)N1CC[C@H](C(=O)N(C)[C@H](C(=O)N[C@H]2Cc3cccc(c3)-c3ccc4c(c3)c(c(-c3cccnc3[C@H](C)OC)n4CC)CC(C)(C)COC(=O)[C@@H]3CCCN(N3)C2=O)C(C)C)[C@@H]1C (atropisomer, axis not shown)', 'IC50', '1000 to 10000 nM');
